test system: BT-549; experiment: NCI tumour cell line growth inhibition, 48 h
Activity calls are given as the source filed them. Cut-off read from the data, not from the text of the source: active = GI50 up to about 1.1 µM and inactive = higher.
Lab note: assign the record to one of Y (active), N (inactive)

C/C(=N/NC(=S)N1CC2CCC(CC2)C1)c1cnccn1 = Y
COc1cc(C(c2c(O)c3ccccc3oc2=O)c2c(O)c3ccccc3oc2=O)cc(Br)c1O = N
CC(=O)Oc1ccc(/C=C/C(=O)NCC(NC(=O)/C=C/c2ccc(OC(C)=O)c(OC(C)=O)c2)C(=O)O)cc1OC(C)=O (stereo unspecified) = N
CCOC(=O)c1c(N)nn2c1cc1cccccc12 = N
COc1ccc2c[n+](C)c3c4cc(OC)c(OC)cc4ccc3c2c1 = N

Kindly consider the entry below.
Query: Could you check what this test reported for Brc1ccccc1/C=N\C12CC3CC(CC(C3)C1)C2 ?
Reply: N

* * *

tested on: UACC-257; experiment: NCI tumour cell line growth inhibition, 48 h
Activity calls are given as the source filed them. Cut-off read from the data, not from the text of the source: active = GI50 up to about 1.1 µM and inactive = higher.
Return exactly one item of 1.0 = active, 0.0 = inactive

O=C1CCCN1CCC/N=c1/cc2n(-c3ccc(Cl)cc3)c3ccccc3nc-2cc1Nc1ccc(Cl)cc1 = 0.0
CC[C@]1(O)CC(OC2CC(N(C)C)C(O)C(C)O2)c2c(cc3c(c2O)C(=O)c2c(O)cccc2C3=O)[C@@H]1C(=O)OC (some centres undefined) = 1.0

Query compound follows.
Query: Recorded call for O=C1C2CC(Cl)C(SSC3CC4C(=O)N(SC(Cl)(Cl)C(Cl)Cl)C(=O)C4CC3Cl)CC2C(=O)N1SC(Cl)(Cl)C(Cl)Cl (centres undefined) ?
Reply: 0.0

* * *

tested on: MCF7; test: NCI tumour cell line growth inhibition, 48 h
The source made the active and inactive calls. Cut-off read from the data, not from the text of the source: active = GI50 up to about 1.1 µM and inactive = higher.
Experimental Endpoint: GI50

Here's what some known entries look like.
C/C(=C\c1ccccc1)C(=O)NCc1ccc(C(=O)NCCc2c[nH]c3ccccc23)cc1 = 24.3 µM (inactive)
CCOc1cc(NC(C)=O)ccc1C(=O)NN1C(=O)CSC1c1ccc(O)c(OC)c1 (stereo not drawn) = 44.7 µM (inactive)
COc1cc2c(cc1OC)CCc1cc(OC)c(OC)cc1CC2 = > 100 µM (inactive)

The reported GI50 value, MCF7, for COC(=O)Cc1c(/C=C/C(C)(C)n2cnc(CCN3C(=O)CCC3=O)c2)[nH]c2ccccc12 reads 47.2 µM (inactive)

Measured on MCF7, Nc1nc(=O)n(C2CC(O)C(CO)O2)c2nc(-c3ccc(-c4ccccc4)cc3)cnc12 (stereo not drawn) has a documented GI50 of 15.5 µM (inactive)

* * *

tested on: SK-OV-3; assay: NCI tumour cell line growth inhibition, 48 h
Calls of active or inactive are those of the source. Rule as the data show it: active = GI50 up to about 1.1 µM and inactive = higher.
The reader will find reported GI50 values listed item by item below.

COc1cc2cccc(/N=C\c3ccccc3Cl)c2cc1OC = > 100 µM (inactive)
COc1ccc(NC(=O)CC2S/C(=N\c3ccccc3C)NC2=O)c([N+](=O)[O-])c1 (stereo not drawn) = > 100 µM (inactive)

Field: next molecule
Data point: COc1cc2c(cc1O)NC(=O)[C@@H]1CCCN1C2=O ; GI50 = > 100 µM (inactive)

* * *

tested on: NCI-H23; experiment: NCI tumour cell line growth inhibition, 48 h
The source made the active and inactive calls. Rule as the data show it: active = GI50 up to about 1.1 µM and inactive = higher.
Experimental Endpoint: GI50

Solved cases (8 shown):
COC1C=COC2(C)Oc3c(C)c(O)c4c(O)c(c(C5SCCS5)c(O)c4c3C2=O)NC(=O)/C(C)=C\C=CC(C)C(O)C(C)C(O)C(C)C(OC(C)=O)C1C (stereo not given) = 4.69 µM (inactive)
CO[C@H]1SC[C@H](OC(C)=O)[C@H](OC(C)=O)[C@H]1OC(C)=O = > 100 µM (inactive)
N#Cc1ccccc1OCCOc1ccccc1C#N = > 100 µM (inactive)
CCCc1n[nH]c(CCC(=O)N(Cc2ccccc2)Cc2ccccc2)c1CC = > 100 µM (inactive)
Cc1ccc(O)c(C(c2ccc(C(c3cc(C)ccc3O)c3cc(C)ccc3O)cc2)c2cc(C)ccc2O)c1 = 1.79 µM (inactive)
CCCCCC[C@@H]1CCC2C(CO)[C@@H](O)CC[C@@H]2C1 (stereo not given in full) = 16 µM (inactive)
c1ccc2c(c1)CCc1c-2n(CCN2CCOCC2)c2ccccc12 = > 100 µM (inactive)
c1ccc(P(CCP(CCP(c2ccccc2)c2ccccc2)c2ccccc2)CCP(c2ccccc2)c2ccccc2)cc1 (stereo not given) = > 5.38 µM (inactive)

Entry CSC1=NC(=O)CCN1C1OCC(OC(C)=O)C(OC(C)=O)C1OC(C)=O (stereo not given) , GI50 reported as 20.8 µM (inactive)

Value of GI50 reported for the compound c1ccc2c(c1)Cc1c(Cc3csc4ccccc34)ccc3cccc-2c13 is > 100 µM (inactive)

Entry under test: Cc1c(C2Cc3ccccc3N2)c2ccccc2n1C (stereo not given) . Its GI50 was > 100 µM (inactive)

Per the records, this compound ( Cc1ccc(S(=O)(=O)OC2CS[S+]([O-])CC2OS(=O)(=O)c2ccc(C)cc2)cc1 (stereo not given) ) has GI50 equal to 14.7 µM (inactive)

Sure, the documented GI50 for Cc1cc(=O)oc2c(C)c3oc(CBr)cc3cc12 is 18.3 µM (inactive)

The compound identified as C/C(=N\NC(=S)NCCNC(=S)N/N=C(\C)c1ccccn1)c1ccccn1 registered its GI50 at 4.41 µM (inactive)

Briefly, GI50 measured for C=C[C@]1(C)CCC2=C(CCC3C2(C)CCC[C@]3(C)CO)C1 (stereo not given in full) : 50.4 µM (inactive)

* * *

tested on: K562; assay: NCI tumour cell line growth inhibition, 48 h
The source made the active and inactive calls. Rule as the data show it: active = GI50 up to about 1.1 µM and inactive = higher.
Hi there, use one of these labels in your reply, thanks! 1 (active), 0 (inactive)

Clc1nc2c(C#Cc3ccccc3)ncnc2n1C1CCCCO1 (configuration not stated) = 0
CC(=O)c1c(-c2ccccc2)c(-c2ccc(OCCN(C)C)cc2)n2ccccc12 = 0
CN(C)C1C(O)=C(C(=O)NCN2CCCC2)C(=O)C2(O)C(O)=C3C(=O)c4c(O)cccc4C(C)(O)C3CC12 (configuration not stated) = 0
O=C1/C(=C\Oc2ccc(F)cc2)N2CCC1CC2 = 0
Cc1c(-c2ccccc2)c(=O)oc2ccc(Cl)cc12 = 0

Query: Outcome logged for COC(=O)C1=Nc2c(C)nn(-c3ccccc3)c2N=C(c2ccccc2)C1 in this assay:
Reply: 0

Query: // param item: Cc1c(C2Cc3ccccc3N2)c2ccccc2n1C (configuration not stated) ; yields the recorded call
Reply: 0

Query: Could you check what this test reported for COC1=CCC2=C(CCN(C(=O)C3CC3)C2Cc2ccc(OC)c(O)c2)C1 (configuration not stated) ?
Reply: 0

Query: Dear colleague, could you share the recorded outcome for CCCC(=O)Nc1cc(/C=C/C(=O)N2C[C@@H]3C[C@]34C2=CC(=O)c2[nH]cc(C)c24)n(C)c1 when you have a moment?
Reply: 1

Query: Which outcome did this test record for the compound CC(=O)c1c(-c2ccc(Cl)cc2)c(C#N)c(=S)n(C2OC(CO)C(O)C(O)C2O)c1C (configuration not stated) ?
Reply: 0

Query: Please share the test call associated with CC(C)(CO)CNc1cc(Cl)nc(N)n1 .
Reply: 0

Query: # outcome recorded in this test, key = CCOC(=O)C12CCCC1(O)N(NC(=O)OC(C)(C)C)C(C)=C2C(=O)OC (configuration not stated)
Reply: 0

* * *

Entries and their GI50 values follow.
system: LXFL 529; assay: NCI tumour cell line growth inhibition, 48 h
The source made the active and inactive calls. Rule as the data show it: active = GI50 up to about 1.1 µM and inactive = higher.

COc1cc(C(=O)NO)ccc1O = > 100 µM (inactive)
Cc1c(C2Cc3ccccc3N2)c2ccccc2n1C (stereo unspecified) = > 100 µM (inactive)
COC(=O)C1C(C(=O)OC)C2(OC)c3ccccc3-c3ccccc3C12 (stereo unspecified) = 44.1 µM (inactive)
O=C(/C=C/c1ccccc1)NC1C=Nc2ccc([N+](=O)[O-])cc2NC1=O (stereo unspecified) = 34.7 µM (inactive)
CC1C=C(OC(=O)c2ccccc2)C(=O)C(n2cc(F)c(=O)[nH]c2=O)O1 (stereo unspecified) = 56 µM (inactive)
Nc1nncc2c1c(Br)cn2C1OC(CO)C(O)C1O (stereo unspecified) = 23.7 µM (inactive)

Item: Cc1cccc(NC(=O)CSc2nnc(Cc3ccccc3)o2)c1 | GI50: > 100 µM (inactive)

Field GI50 (entry COC(=O)C(Cc1ccc2c(c1)OCO2)(NC(=O)c1ccccc1)P(=O)(OC)OC (stereo unspecified) ) reads > 100 µM (inactive)

For reference, reported GI50 for O=[N+]([O-])c1cccc(/C=N/C23CC4CC(CC(C4)C2)C3)c1 stands at > 100 µM (inactive)

For reference, reported GI50 for Cc1ccc2c(c1)SC(c1cc3c(cc1Br)OCO3)S2 (stereo unspecified) stands at > 31.6 µM (inactive)

GI50 in this record for Cc1cc2c(C)n[nH]c2c(C(=O)O)c1C : > 100 µM (inactive)

Attribution: ChEMBL document CHEMBL1201862
